The values you see were collected from patent US11384099B2.

biological target: human FGFR3 V555M enzyme (cytoplasmic domain carrying V555M mutation) (Homo sapiens, UniProt P22607, V555M); construct: cytoplasmic domain carrying V555M mutation, from Carna Biosciences; assay: FGFR3 V555M mobility shift assay (enzymatic assay, Caliper); settings: 30 μM ATP, 45 minutes at 30° C.
Sequence (P22607 397-806 V555M limits assumed): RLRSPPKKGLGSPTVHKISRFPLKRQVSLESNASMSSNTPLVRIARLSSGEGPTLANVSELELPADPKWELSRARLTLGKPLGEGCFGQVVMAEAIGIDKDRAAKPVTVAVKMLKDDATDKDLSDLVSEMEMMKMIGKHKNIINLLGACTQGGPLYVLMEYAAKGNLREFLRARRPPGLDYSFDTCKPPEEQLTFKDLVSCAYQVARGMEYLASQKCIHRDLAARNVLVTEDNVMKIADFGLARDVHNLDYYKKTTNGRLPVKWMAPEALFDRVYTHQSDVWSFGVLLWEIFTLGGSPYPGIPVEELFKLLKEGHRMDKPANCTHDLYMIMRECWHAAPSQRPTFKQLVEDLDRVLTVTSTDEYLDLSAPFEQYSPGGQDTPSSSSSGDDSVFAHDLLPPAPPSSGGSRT
readout.kind: IC50 (nM)

Examples with answers:
compound: C[C@H](Nc1c(-c2nc3ccc(F)cc3[nH]2)c(=O)[nH]c2cn(C)nc12)c1ncccn1
IC50 [nM]: 0.595

compound: COCCOc1cc2[nH]c(-c3c(NC(c4ncccn4)C(C)C)c4nn(C)cc4[nH]c3=O)nc2cc1OC (single isomer, unassigned) [Compound 35]
IC50 [nM]: 80.5

compound: COCC(Nc1c(-c2nc3cnc(OC)cc3[nH]2)c(=O)[nH]c2cn(C)nc12)c1ncccn1 (single isomer, unassigned) [Compound 20]
IC50 [nM]: 4.67

compound: CC[C@@H](Nc1c(-c2nc3cnc(N(C)C)cc3[nH]2)c(=O)[nH]c2cn(C)nc12)c1ncccn1
IC50 [nM]: 347

compound: CC[C@H](Nc1c(-c2nc3cnc(N(C)C)cc3[nH]2)c(=O)[nH]c2cn(C)nc12)c1ncccn1
IC50 [nM]: 0.743

[1] CCn1cc2[nH]c(=O)c(-c3nc4ccc(OC)cc4[nH]3)c(N[C@@H](C)c3cocn3)c2n1 (single isomer, unassigned)
[2] CCn1cc2[nH]c(=O)c(-c3nc4ccc(OCCOC)cc4[nH]3)c(N[C@@H](C)c3ncccn3)c2n1
Which of the two items, 1 and 2 , has the greater recorded IC50? API: response body contains the label of the selected item.
1
